Answer each item with its documented binding as % of Reference Sequence (=100%).
tested target: purified interference factor(s) from serum of Donor C
experiment: SPR, interference factor on CM5 chip
Answer in %, number only, no unit symbol.

Q) Given Nanobody or Nanobody construct of SEQ ID NO: 71 (VHH) VHH: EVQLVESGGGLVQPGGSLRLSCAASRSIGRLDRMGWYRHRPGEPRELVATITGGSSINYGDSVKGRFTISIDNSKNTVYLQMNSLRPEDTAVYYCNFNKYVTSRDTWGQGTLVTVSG , state its recorded binding as % of Reference Sequence (=100%).
A) 87

Q) Given Nanobody or Nanobody construct of SEQ ID NO: 66 (VHH) VHH: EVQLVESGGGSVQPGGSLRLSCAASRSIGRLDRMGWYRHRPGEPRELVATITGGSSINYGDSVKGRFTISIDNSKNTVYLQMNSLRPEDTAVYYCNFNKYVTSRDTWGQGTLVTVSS , state its recorded binding as % of Reference Sequence (=100%).
A) 84

Q) Given Nanobody or Nanobody construct of SEQ ID NO: 38 (VHH) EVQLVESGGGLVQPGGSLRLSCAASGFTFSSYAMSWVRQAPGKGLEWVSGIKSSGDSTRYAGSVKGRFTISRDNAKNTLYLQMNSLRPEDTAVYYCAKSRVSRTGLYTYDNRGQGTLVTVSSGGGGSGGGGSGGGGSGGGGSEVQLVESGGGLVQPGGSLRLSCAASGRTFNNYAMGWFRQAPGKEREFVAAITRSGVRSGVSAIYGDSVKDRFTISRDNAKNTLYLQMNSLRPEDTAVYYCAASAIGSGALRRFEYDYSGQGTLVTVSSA , state its recorded binding as % of Reference Sequence (=100%).
A) 7
